Data origin, for the record: ChEMBL document CHEMBL1149086

Test system: Plasmodium falciparum
Assay: In vitro antimalarial activity against Plasmodium falciparum HB3 by [3H]hypoxanthine uptake
Assay type: functional, organism-based
Measure: IC50 (nM)
Reply with just the number (in nM).

Compound: C[C@H]1[C@@H](CCOP(=O)(OCC[C@H]2O[C@@H]3OC4(C)CC[C@H]5[C@H](C)CC[C@@H]([C@H]2C)[C@@]35OO4)Oc2ccccc2)O[C@@H]2OC3(C)CC[C@H]4[C@H](C)CC[C@@H]1[C@@]24OO3 (single isomer, unassigned)
IC50, nM: 0.18

Next, consider the following compound.
The compound `C[C@H]1[C@@H](CCOCc2ccccc2COCC[C@H]2O[C@@H]3O[C@]4(C)CC[C@H]5[C@H](C)CC[C@@H]([C@H]2C)[C@@]35OO4)O[C@@H]2O[C@]3(C)CC[C@H]4[C@H](C)CC[C@@H]1[C@@]24OO3` showed IC50 equal to 1.3

---

Catalogue of molecules with associated IC50
System: Plasmodium falciparum
Assay: In vitro antimalarial activity against Plasmodium falciparum K1 by [3H]hypoxanthine uptake
Type: functional, organism-based
Field: numeric (nM). Do not append units.

Reference set, count: 3
Molecule: C[C@H]1[C@@H](CCOCc2cccc(COCC[C@H]3O[C@@H]4O[C@]5(C)CC[C@H]6[C@H](C)CC[C@@H]([C@H]3C)[C@@]46OO5)c2)O[C@@H]2OC3(C)CC[C@H]4[C@H](C)CC[C@@H]1[C@@]24OO3 (single isomer, unassigned)
Endpoint unit: nM
IC50: 2.7

Molecule: C[C@H]1[C@@H](CCOCc2ccc(COCC[C@H]3O[C@@H]4O[C@]5(C)CC[C@H]6[C@H](C)CC[C@@H]([C@H]3C)[C@@]46OO5)cc2)O[C@@H]2O[C@]3(C)CC[C@H]4[C@H](C)CC[C@@H]1[C@@]24OO3
Endpoint unit: nM
IC50: 2.4

Molecule: C[C@H]1[C@@H](CCOC(=O)c2ccc(C(=O)OCC[C@H]3O[C@@H]4O[C@]5(C)CC[C@H]6[C@H](C)CC[C@@H]([C@H]3C)[C@@]46OO5)cc2)O[C@@H]2O[C@]3(C)CC[C@H]4[C@H](C)CC[C@@H]1[C@@]24OO3
Endpoint unit: nM
IC50: 4.6

Summary for this molecule, `C[C@H]1[C@@H](CCOC(=O)c2ccccc2C(=O)OCC[C@H]2O[C@@H]3O[C@]4(C)CC[C@H]5[C@H](C)CC[C@@H]([C@H]2C)[C@@]35OO4)O[C@@H]2O[C@]3(C)CC[C@H]4[C@H](C)CC[C@@H]1[C@@]24OO3` : IC50 is 2.6

Lookup result for `C[C@H]1[C@@H](CCOCc2ccccc2COCC[C@H]2O[C@@H]3O[C@]4(C)CC[C@H]5[C@H](C)CC[C@@H]([C@H]2C)[C@@]35OO4)O[C@@H]2O[C@]3(C)CC[C@H]4[C@H](C)CC[C@@H]1[C@@]24OO3` ; measured IC50: 2.9

---

Entries annotated with measured IC50
System: HL-60
Assay: Inhibitory concentration against HL60 cells
Format: functional, cell-based
Conditions: Homo sapiens
Reply numerically in nM, unit not repeated.

Compound: COc1cccc2c1C(=O)c1c(O)c3c(c(O)c1C2=O)C[C@@](O)(C(=O)CO)C[C@@H]3O[C@H]1C[C@H](N)[C@H](O)[C@H](C)O1
Target entity: HL-60
IC50 [nM]: 510
--
Compound: CC(=O)C1C(=O)C=C(C)OC1=O (centres undefined) [DEHYDROACETIC ACID]
Target entity: HL-60
IC50 [nM]: 1210
--
Compound: C[C@H]1[C@@H](CCOP(=O)(OCC[C@H]2O[C@@H]3OC4(C)CC[C@H]5[C@H](C)CC[C@@H]([C@H]2C)[C@@]35OO4)Oc2ccccc2)O[C@@H]2OC3(C)CC[C@H]4[C@H](C)CC[C@@H]1[C@@]24OO3 (single isomer, unassigned)
Target entity: HL-60
IC50 [nM]: 241

Consider the additional compound presented here.
Record COP(=O)(OCC[C@H]1O[C@@H]2OC3(C)CC[C@H]4[C@H](C)CC[C@@H]([C@H]1C)[C@@]24OO3)OCC[C@H]1O[C@@H]2OC3(C)CC[C@H]4[C@H](C)CC[C@@H]([C@H]1C)[C@@]24OO3 (single isomer, unassigned) ; system HL-60; IC50 = 143

---

Tested on: Plasmodium falciparum
Assay: In vitro antimalarial activity against Plasmodium falciparum HB3 by [3H]hypoxanthine uptake
Assay type: functional, organism-based
pIC50: −log10 of the molar value.
Label scheme for pIC50: lower than 9 is F, 9 and above is T.

Molecule: C[C@H]1[C@@H](CCOCc2cccc(COCC[C@H]3O[C@@H]4O[C@]5(C)CC[C@H]6[C@H](C)CC[C@@H]([C@H]3C)[C@@]46OO5)c2)O[C@@H]2OC3(C)CC[C@H]4[C@H](C)CC[C@@H]1[C@@]24OO3 (single isomer, unassigned)
Target entity: Plasmodium falciparum
Assigned label: F

Could you now look at the following molecule, please?
Please indicate if the recorded pIC50 for COP(=O)(OCC[C@H]1O[C@@H]2OC3(C)CC[C@H]4[C@H](C)CC[C@@H]([C@H]1C)[C@@]24OO3)OCC[C@H]1O[C@@H]2OC3(C)CC[C@H]4[C@H](C)CC[C@@H]([C@H]1C)[C@@]24OO3 (single isomer, unassigned) meets or exceeds 9.
T

---

System: Plasmodium falciparum
Test: In vitro antimalarial activity against Plasmodium falciparum K1 by [3H]hypoxanthine uptake
Format: functional, organism-based
Measure: log10(IC50) (log10 of the value in nM)
Units before log transform: nM; reported quantity: IC50; transform: log10.

Molecule: C[C@H]1[C@@H](CCOP(=O)(Oc2ccccc2)Oc2ccccc2)O[C@@H]2O[C@]3(C)CC[C@H]4[C@H](C)CC[C@@H]1[C@@]24OO3
log10(IC50): 0.49
--
Molecule: C[C@H]1[C@@H](CCOC(=O)c2cccc(C(=O)OCC[C@H]3O[C@@H]4O[C@]5(C)CC[C@H]6[C@H](C)CC[C@@H]([C@H]3C)[C@@]46OO5)c2)O[C@@H]2O[C@]3(C)CC[C@H]4[C@H](C)CC[C@@H]1[C@@]24OO3
log10(IC50): 1.63

For reference, reported log10(IC50) for C[C@H]1[C@@H](CCOC(=O)CCCC(=O)OCC[C@H]2O[C@@H]3OC4(C)CC[C@H]5[C@H](C)CC[C@@H]([C@H]2C)[C@@]35OO4)O[C@@H]2OC3(C)CC[C@H]4[C@H](C)CC[C@@H]1[C@@]24OO3 (single isomer, unassigned) stands at 0.38

Memo: C[C@@H]1CC[C@H]2[C@@H](C)C(=O)O[C@@H]3O[C@@]4(C)CC[C@@H]1[C@]32OO4 [ARTEMISININ] , reported log10(IC50): 1.09

Value of log10(IC50) reported for the molecule C[C@H]1[C@@H](CCOC(=O)CCC(=O)OCC[C@H]2O[C@@H]3OC4(C)CC[C@H]5[C@H](C)CC[C@@H]([C@H]2C)[C@@]35OO4)O[C@@H]2OC3(C)CC[C@H]4[C@H](C)CC[C@@H]1[C@@]24OO3 (single isomer, unassigned) is 0.26

For reference, reported log10(IC50) for `COP(=O)(OC)OCC[C@H]1O[C@@H]2O[C@]3(C)CC[C@H]4[C@H](C)CC[C@@H]([C@H]1C)[C@@]24OO3` stands at 0.34

---

Test system: Plasmodium falciparum
Test: In vitro antimalarial activity against Plasmodium falciparum HB3 by [3H]hypoxanthine uptake
Assay type: functional, organism-based
Measure: IC50 (nM)
# number only, unit nM dropped from output

Compound: C[C@H]1[C@@H](CCOC(=O)CCCC(=O)OCC[C@H]2O[C@@H]3OC4(C)CC[C@H]5[C@H](C)CC[C@@H]([C@H]2C)[C@@]35OO4)O[C@@H]2OC3(C)CC[C@H]4[C@H](C)CC[C@@H]1[C@@]24OO3 (single isomer, unassigned)
Reported: 1.1

Compound: C[C@H]1[C@@H](CCOC(=O)CCC(=O)OCC[C@H]2O[C@@H]3OC4(C)CC[C@H]5[C@H](C)CC[C@@H]([C@H]2C)[C@@]35OO4)O[C@@H]2OC3(C)CC[C@H]4[C@H](C)CC[C@@H]1[C@@]24OO3 (single isomer, unassigned)
Reported: 1.4

# compound `C[C@H]1[C@@H](CCOC(=O)c2ccccc2C(=O)OCC[C@H]2O[C@@H]3O[C@]4(C)CC[C@H]5[C@H](C)CC[C@@H]([C@H]2C)[C@@]35OO4)O[C@@H]2O[C@]3(C)CC[C@H]4[C@H](C)CC[C@@H]1[C@@]24OO3` ; its IC50 = 1.6
